Tested on: human primary T-cells, IL-2 stimulated proliferation (JAK-1 and JAK-3 dependent; reported as JAK3 activity)
Assay: Human primary T-cell proliferation stimulated by IL-2 (Example 3)
Type: cell-based
Conditions: Homo sapiens, T-cell, tested under conditions described in Example 3 (IL-2 stimulated human primary T-cell proliferation); read-out: ability to inhibit JAK3 activity, IC50 range (Table V)
Where a name gives a salt, the structure may show the parent alone.
Entries and their measured IC50 follow.
recorded endpoint: IC50

molecule	recorded endpoint	value
COc1cc(Nc2ncc(C)c(Nc3ccc4oc(=O)[nH]c4c3)n2)ccc1-c1ccncc1 [Compound I-494, formate salt]	IC50	0.5 to 5 µM
Cc1cnc(Nc2ccc(OC(F)F)c(CF)c2)nc1Nc1ccc2oc(=O)[nH]c2c1 [Compound I-433, formate salt]	IC50	< 0.5 µM
Cc1cnc(Nc2cccc(C(C)N3CCCCC3)c2)nc1Nc1ccc2oc(=O)[nH]c2c1 (stereo not shown)	IC50	< 0.5 µM
Cc1cnc(Nc2ccc(N3C[C@@H]4C[C@H]3CO4)nc2)nc1Nc1ccc2oc(=O)[nH]c2c1	IC50	< 0.5 µM
CC(=O)Nc1ccc(Nc2ncc(C)c(Nc3ccc4oc(=O)[nH]c4c3)n2)cc1C(F)(F)F	IC50	< 0.5 µM
Cc1cnc(Nc2cccc(C)c2C)nc1Nc1ccc2oc(=O)[nH]c2c1	IC50	0.5 to 5 µM
Cc1cnc(Nc2ccc(N[C@H]3CCCNC3)nc2)nc1Nc1ccc2oc(=O)[nH]c2c1	IC50	< 0.5 µM
Cc1cnc(Nc2ccc3c(c2)C(=O)N(C)C/C=C\C3)nc1Nc1ccc2oc(=O)[nH]c2c1	IC50	< 0.5 µM
Cc1cnc(Nc2ccc(F)c(-c3ccncc3)c2)nc1Nc1ccc2oc(=O)[nH]c2c1	IC50	< 0.5 µM
Cc1cnc(Nc2ccc(C(C)NC3CC3)cc2)nc1Nc1ccc2oc(=O)[nH]c2c1 (stereo not shown)	IC50	< 0.5 µM
Cc1cnc(Nc2cc(C)c(C)c(C)c2)nc1Nc1cc(F)c2oc(=O)[nH]c2c1	IC50	< 0.5 µM
COc1cc(Nc2ncc(C)c(Nc3cc(C)c4oc(=O)[nH]c4c3)n2)cc(C(F)(F)F)c1	IC50	> 10 µM
Cc1cc(F)cc(Nc2ncc(C)c(Nc3ccc4oc(=O)[nH]c4c3)n2)c1	IC50	< 0.5 µM
COc1cc(C)cc(Nc2ncc(C)c(Nc3cc(C)c4oc(=O)n(COP(=O)(O)O)c4c3)n2)c1 [Compound I-536, phosphate]	IC50	5 to 10 µM
Cc1cnc(Nc2ccc3c(c2)NS(=O)(=O)CO3)nc1Nc1ccc2oc(=O)[nH]c2c1	IC50	< 0.5 µM
Cc1cnc(Nc2ccc(C3NCC4CCCCC43)nc2)nc1Nc1ccc2oc(=O)[nH]c2c1 (stereo not shown)	IC50	< 0.5 µM
